Attribution: PubChem BioAssay (NCI)

- Tested on: HCT-15 colon
- protocolDetails: NCI tumour cell line growth inhibition, 48 h; in the data active = GI50 below about 0.43 µM; inactive = the rest
Result category, one only: active, inactive

[in] Any idea what this test logged for CC(=O)c1ccc2c(c1)c1cc(C(C)=O)ccc1n2CCNC(C)C ?
[out] active

[in] Item: C/C(=N\NC(=S)N1CCCCC1)c1ccccn1
[out] active

[in] Repeat with CCN(CCCN(C)C)Cc1cc(I)cc(C)c1O
[out] inactive

Continuing:
[in] Could you kindly confirm the outcome this assay logged for CS(=O)(=O)Nc1cncc(-c2ccc3ncnc(Nc4ccc(F)c(Cl)c4)c3c2)c1 ?
[out] inactive

[in] One more compound: CCOC(=O)c1ccc(NC(=O)Nc2nncs2)cc1
[out] active
